Assay: physchem
assay_endpoint: pKa

# molecule, pKa
measured = [
    ("CCO[C@@H]([C@H]1C[C@@H](C)[C@H]2[C@H](O1)[C@H](O)[C@@]1(C)[C@@H]3CC[C@H]4C(C)(C)[C@@H](O[C@H]5CN(CC)CCO5)CC[C@@]45C[C@@]35CC[C@]21C)C(C)(C)O", 7.3),
]

P: CCO[C@@H]([C@H]1C[C@@H](C)[C@H]2[C@H](O1)[C@H](O)[C@@]1(C)[C@@H]3CC[C@H]4C(C)(C)[C@@H](O[C@H]5CN(C6(C)COC6)CCO5)CC[C@@]45C[C@@]35CC[C@]21C)C(C)(C)O
Q: CCO[C@@H]([C@H]1C[C@@H](C)[C@H]2[C@H](O1)[C@H](O)[C@@]1(C)[C@@H]3CC[C@H]4C(C)(C)[C@@H](O[C@H]5CN(CCN6CCC6)CCO5)CC[C@@]45C[C@@]35CC[C@]21C)C(C)(C)O
Q: I'd appreciate it if you could identify which of P and Q has the greater pKa. Mark your selection by writing its label.
Ans: Q
(Q: 9.4, P: 5.2)
